# TARGET_UNDER_TEST: human FGFR1 (Homo sapiens, UniProt P11362)
# Construct: purchased Invitrogen PV3146
# Sequence (P11362 22-822): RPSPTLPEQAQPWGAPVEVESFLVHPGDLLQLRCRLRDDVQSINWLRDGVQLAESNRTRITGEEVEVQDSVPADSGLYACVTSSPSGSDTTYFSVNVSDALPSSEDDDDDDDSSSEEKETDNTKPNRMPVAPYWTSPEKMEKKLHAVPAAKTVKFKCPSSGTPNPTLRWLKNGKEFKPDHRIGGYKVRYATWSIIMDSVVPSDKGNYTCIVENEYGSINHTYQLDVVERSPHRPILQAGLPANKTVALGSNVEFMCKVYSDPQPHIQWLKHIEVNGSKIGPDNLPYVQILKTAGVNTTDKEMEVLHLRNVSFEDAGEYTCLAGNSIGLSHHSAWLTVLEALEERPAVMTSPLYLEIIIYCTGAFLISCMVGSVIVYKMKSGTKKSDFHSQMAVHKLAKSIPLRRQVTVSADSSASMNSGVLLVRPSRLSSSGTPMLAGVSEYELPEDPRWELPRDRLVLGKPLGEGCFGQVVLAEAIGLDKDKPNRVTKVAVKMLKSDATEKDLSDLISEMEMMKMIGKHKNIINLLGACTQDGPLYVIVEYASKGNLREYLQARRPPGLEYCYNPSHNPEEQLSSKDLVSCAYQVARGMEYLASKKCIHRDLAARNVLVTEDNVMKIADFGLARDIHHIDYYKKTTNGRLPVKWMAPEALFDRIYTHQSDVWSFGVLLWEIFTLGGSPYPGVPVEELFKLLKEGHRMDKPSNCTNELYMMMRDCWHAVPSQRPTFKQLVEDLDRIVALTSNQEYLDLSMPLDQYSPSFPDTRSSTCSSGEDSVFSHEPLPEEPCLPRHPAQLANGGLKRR
# ASSAY_DETAILS: 33P isotope-labeled kinase activity test (Reaction Biology Corp), wild-type FGFR1
# Format: biochemical
# CONDITION_SET: 33P-ATP 5 μM, substrate pEY + Mn, 120 minutes at room temperature
Where a name gives a salt, the structure may show the parent alone.
RECORDED_METRIC: IC50 (nM)

Example molecules with recorded IC50:
>>> test_result("COCCN1CCC(n2cc(-c3cnc(N)c(-c4cn(C)c(=O)c(-c5cc(OC)cc(OC)c5)n4)n3)c(C)n2)CC1")
29.3
>>> test_result("COc1cc(OC)cc(-c2nc(-c3nc(-c4ccc(C5CCN(C)CC5)nc4)cnc3N)cn(C)c2=O)c1 [Hydrochloride salt of 0036]")
13.2

[1] COc1cc(OC)cc(-c2nc(-c3nc(-c4cnn(CCO)c4C)cnc3N)cn(C)c2=O)c1
[2] COc1cc(OC)cc(-c2nc(-c3nc(-c4cncc(C)c4)cnc3N)cn(C)c2=O)c1
[3] COc1cc(OC)cc(-c2nc(-c3nc(-c4cnn(CC5(C#N)CC5)c4C)cnc3N)cn(C)c2=O)c1
[4] COc1cc(OC)c(Cl)c(-c2nc(-c3nc(-c4ccc(C5CCN(C)CC5)nc4)cnc3N)cn(C)c2=O)c1 [Trifluoroacetate salt of 0060]
[5] COc1cc(OC)cc(-c2nc(-c3nc(-c4cn(C5CCNCC5)nc4C)cnc3N)cn(C)c2=O)c1
Ask: Your job: order these 5 records by IC50, ascending. # answer = labels listed in requested order
Reply: 4, 3, 5, 2, 1
(4: 3.08 nM, 3: 29.3 nM, 5: 54 nM, 2: 126 nM, 1: 201 nM)
